Reference source for all entries: ChEMBL document CHEMBL1139458

Target: DNA helicase/primase complex protein (Herpes simplex virus (type 1 / strain 17))
Sequence (P10236 whole entry): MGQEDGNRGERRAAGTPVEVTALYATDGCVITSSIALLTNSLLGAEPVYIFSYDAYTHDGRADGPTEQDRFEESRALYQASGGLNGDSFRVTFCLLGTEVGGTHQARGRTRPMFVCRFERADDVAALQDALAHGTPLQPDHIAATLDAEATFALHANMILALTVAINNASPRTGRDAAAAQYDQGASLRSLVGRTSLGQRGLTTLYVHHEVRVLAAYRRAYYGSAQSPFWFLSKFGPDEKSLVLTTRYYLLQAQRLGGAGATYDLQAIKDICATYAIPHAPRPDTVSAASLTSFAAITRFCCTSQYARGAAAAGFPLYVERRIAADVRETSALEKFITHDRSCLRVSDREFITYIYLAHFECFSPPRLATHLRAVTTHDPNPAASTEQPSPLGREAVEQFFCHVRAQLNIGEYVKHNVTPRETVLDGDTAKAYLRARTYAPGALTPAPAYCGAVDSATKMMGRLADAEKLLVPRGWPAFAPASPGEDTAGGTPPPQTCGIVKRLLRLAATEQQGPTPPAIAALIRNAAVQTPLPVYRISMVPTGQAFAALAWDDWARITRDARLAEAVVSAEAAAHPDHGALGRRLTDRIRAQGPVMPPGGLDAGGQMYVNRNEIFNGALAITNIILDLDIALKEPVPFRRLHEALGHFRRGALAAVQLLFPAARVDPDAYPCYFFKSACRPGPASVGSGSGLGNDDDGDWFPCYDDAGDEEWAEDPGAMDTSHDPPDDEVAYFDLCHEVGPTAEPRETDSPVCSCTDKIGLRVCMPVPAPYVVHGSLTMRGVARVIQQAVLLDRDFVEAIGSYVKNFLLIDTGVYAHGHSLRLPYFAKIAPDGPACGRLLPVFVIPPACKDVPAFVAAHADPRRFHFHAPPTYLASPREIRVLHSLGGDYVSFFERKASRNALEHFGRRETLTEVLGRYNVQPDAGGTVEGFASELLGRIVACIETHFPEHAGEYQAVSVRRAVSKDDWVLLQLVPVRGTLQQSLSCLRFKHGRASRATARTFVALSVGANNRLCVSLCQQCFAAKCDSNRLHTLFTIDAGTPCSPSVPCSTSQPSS
Assay: Inhibitory concentration against herpes simplex virus helicase primase 8 (HSV)
pIC50: −log10 of the molar value.
Measured Parameter: pIC50

Any idea what pIC50 was measured for `O=C(O)CS(=O)(=O)c1ccc(-c2ccccc2)cc1` ?
< 4.10
